test system: MCF10A; test: percent viability (nuclei count relative to siNT); higher = more viable cells; conditions: 20 nM; 72 h
Reported percent viability values are given for each entry in this list.
MEASURE NAME: percent viability (%)

{"columns": ["BIOSEQUENCE", "MEASURE NAME", "UNIT OF MEASUREMENT", "OBSERVED MEASUREMENT"],
 "data": [
  ["UGAAACAUACACGGGAAACCUC [hsa-miR-494]", "percent viability", "%", 24.5],
  ["UUCUUUGUUUUUAAUUCACAG [hsa-miR-6844]", "percent viability", "%", 70],
  ["CCCCACCUCCUCUCUCCUCAG [hsa-miR-1224-3p]", "percent viability", "%", 86.7],
  ["GGGUGGGGAUUUGUUGCAUUAC [hsa-miR-92a-2-5p]", "percent viability", "%", 42.2],
  ["UGCUGGAUCAGUGGUUCGAGUC [hsa-miR-1287]", "percent viability", "%", 25.2],
  ["AAUGUAAACAGGCUUUUUGCU [hsa-miR-4495]", "percent viability", "%", 68.8],
  ["CAAUUUAGUGUGUGUGAUAUUU [hsa-miR-32-3p]", "percent viability", "%", 80.6],
  ["UUGUACAUGGUAGGCUUUCAUU [hsa-miR-493-5p]", "percent viability", "%", 81.7],
  ["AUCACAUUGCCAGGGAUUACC [hsa-miR-23b-3p]", "percent viability", "%", 103],
  ["UUACAGGCGUGAACCACCGCG [hsa-miR-5095]", "percent viability", "%", 12.8],
  ["CCGGGAGAAGGAGGUGGCCUGG [hsa-miR-6746-5p]", "percent viability", "%", 50.3],
  ["AAAAGUAAUUGUGGUUUUUGCC [hsa-miR-548d-5p]", "percent viability", "%", 95.4]
]}

* * *

tested on: MCF10A; assay: percent viability (nuclei count relative to siNT); higher = more viable cells; conditions: 20 nM; 72 h
Exam item: assign class 1 to entries whose percent viability is below 30% and class 0 to entries at or above 30%. Note that a value of exactly 30% receives class 0.

{"columns": ["BIOSEQUENCE", "ASSIGNED CATEGORY"],
 "data": [
  ["UGGAAUGUAAGGAAGUGUGUGG [hsa-miR-206]", "class 0"],
  ["AGAGGUAGUAGGUUGCAUAGUU [hsa-let-7d-5p]", "class 1"],
  ["UCUCAGCUGCUGCCCUCUCCAG [hsa-miR-6787-3p]", "class 0"],
  ["AGAGCUUAGCUGAUUGGUGAAC [hsa-miR-27b-5p]", "class 0"],
  ["UCUGGGAGGUUGUAGCAGUGGAA [hsa-miR-3192]", "class 1"],
  ["AGCUGGUGUUGUGAAUCAGGCCG [hsa-miR-138-5p]", "class 1"]
]}

* * *

tested on: MCF10A; assay: 5+ nucleoli phenotype percent effect (relative to siNT 0% and siKIF11 100%); higher = more cells with five or more nucleoli; details: 20 nM; 72 h

{"columns": ["BIOSEQUENCE", "5+ nucleoli phenotype percent effect / %"],
 "data": [
  ["UUCUGCUGCCGGCCAAGGC [hsa-miR-6071]", -25.7],
  ["AUAAGACGAGCAAAAAGCUUGU [hsa-miR-208a]", 14.9],
  ["GCUCAGGGAUGAUAACUGUGCUGAGA [hsa-miR-4518]", 31.9],
  ["UUGUCUCUUGUUCCUCACACAG [hsa-miR-6818-3p]", 16.4],
  ["CCUCAGGGCUGUAGAACAGGGCU [hsa-miR-1266]", 16.1],
  ["UAAUUUUAUGUAUAAGCUAGU [hsa-miR-590-3p]", 34.3],
  ["UGGAUAUGAUGACUGAAA [hsa-miR-4791]", 4.66],
  ["AUCAGGGCUUGUGGAAUGGGAAG [hsa-miR-3127-5p]", -23.4],
  ["CCAACCUAGGUGGUCAGAGUUG [hsa-miR-4714-3p]", 42],
  ["AGAGGUAGGUGUGGAAGAA [hsa-miR-4458]", 36.9],
  ["AGGAGGAUGGAGAGCUGGGCCAGA [hsa-miR-6894-5p]", 6.67],
  ["AAAAGCUGGGUUGAGAGGGCGA [hsa-miR-320a]", -11.8],
  ["CCUGCAGAGAGGAAGCCCUUC [hsa-miR-3158-5p]", -45.3],
  ["CUGUACAACCUUCUAGCUUUCC [hsa-let-7c-3p]", -7.45],
  ["UGGGGGAGGAAGGACAGGCCAU [hsa-miR-7111-5p]", -6.11],
  ["AAGCAUUCUUUCAUUGGUUGG [hsa-miR-1179]", 0.87],
  ["UGGAGAGAAAGGCAGUA [hsa-miR-4306]", 31.6],
  ["GAAGGCGCUUCCCUUUAGAGCG [hsa-miR-525-3p]", -16.5],
  ["ACUCCAUUUGUUUUGAUGAUGGA [hsa-miR-136-5p]", 34.2],
  ["CAAUGGCACAAACUCAUUCUUGA [hsa-miR-5197-5p]", -38.9],
  ["ACCCCACUCCUGGUACC [hsa-miR-4286]", 39.7],
  ["UGAGGACAGGGCAAAUUCACGA [hsa-miR-5004-5p]", -12.8],
  ["UCAUCCCCCUCGCCCUCUCAG [hsa-miR-6729-3p]", 10.2],
  ["UGGGAAAGACAAACUCAGAGUU [hsa-miR-6733-5p]", 8.82],
  ["AUGAAGUGCACUCAUGAUAUGU [hsa-miR-3616-5p]", -38.4],
  ["UGAUUGUCUUCCCCCACCCUCA [hsa-miR-6766-3p]", -20.7],
  ["UUGGGGUGGUCGGCCCUGGAG [hsa-miR-6737-5p]", -19.8],
  ["CUGCAAAGGGAAGCCCUUUC [hsa-miR-527]", -41.4],
  ["GUGGGCUGGGCUGGGCUGGGCC [hsa-miR-3620-5p]", -31.1],
  ["UUGCAUAGUCACAAAAGUGAUC [hsa-miR-153]", 83],
  ["GGGGAACUGUAGAUGAAAAGGC [hsa-miR-8059]", 34.6],
  ["GUGUGCGGAAAUGCUUCUGCUA [hsa-miR-147b]", 33.7],
  ["UAGGUUAUCCGUGUUGCCUUCG [hsa-miR-154-5p]", -28.7],
  ["AAGCCUCUGUCCCCACCCCAG [hsa-miR-6819-3p]", -5.25],
  ["AGCAGGGCUGGGGAUUGCA [hsa-miR-6132]", -31],
  ["CAACAAAUCCCAGUCUACCUAA [hsa-miR-7-2-3p]", 4.35],
  ["UGACCUGGGACUCGGACAGCUG [hsa-miR-3661]", -25.2],
  ["UACCCAGAGCAUGCAGUGUGAA [hsa-miR-1912]", -35.1],
  ["UACUGCAUCAGGAACUGAUUGGA [hsa-miR-217]", 1.56],
  ["UUGGGCCCAGGAGUAAACAGGAU [hsa-miR-6773-5p]", -4.65],
  ["CUCAGUGACUCAUGUGC [hsa-miR-4276]", -21.3],
  ["AAGGCCUUUCUGAACCUUCAGA [hsa-miR-3142]", -15],
  ["AGGACUGGACUCCCGGCAGCCC [hsa-miR-4515]", -14.9],
  ["CCCCGGGGAGCCCGGCG [hsa-miR-4532]", 45.2],
  ["AAUGUAAACAGGCUUUUUGCU [hsa-miR-4495]", 29.4],
  ["CCAGUGGGGCUGCUGUUAUCUG [hsa-miR-194-3p]", 10.5],
  ["AAGAUGUGGAAAAAUUGGAAUC [hsa-miR-576-3p]", -7.01],
  ["GUGGGAUUUCUGAGUAGCAUC [hsa-miR-5089-5p]", -4.04]
]}

* * *

Reported nucleolar rRNA biogenesis percent inhibition values are given for each entry in this list.
tested on: hTERT RPE-1; assay: nucleolar rRNA biogenesis percent inhibition (5-EU; siNT 0%, siPOLR1A 100%); higher = stronger inhibition of nucleolar rRNA biogenesis; conditions: 20 nM; 72 h
MEASURE NAME: nucleolar rRNA biogenesis percent inhibition (%)

{"columns": ["BIOSEQUENCE", "MEASURED TARGET", "UNIT OF MEASUREMENT", "OBSERVED MEASUREMENT"],
 "data": [
  ["UCUCUGGGCCUGUGUCUUAGGC [hsa-miR-330-5p]", "hTERT RPE-1", "%", 109],
  ["CAGGUCGUCUUGCAGGGCUUCU [hsa-miR-431-3p]", "hTERT RPE-1", "%", 118],
  ["UGUCCUCUAGGGCCUGCAGUCU [hsa-miR-3909]", "hTERT RPE-1", "%", 66.8],
  ["CUCUUGAGGGAAGCACUUUCUGU [hsa-miR-526b-5p]", "hTERT RPE-1", "%", 75.9],
  ["UGGUUCUAGACUUGCCAACUA [hsa-miR-182-3p]", "hTERT RPE-1", "%", 173],
  ["AGAAGGCACUAUGAGAUUUAGA [hsa-miR-605-3p]", "hTERT RPE-1", "%", -22.8],
  ["AGGCGGAGACUUGGGCAAUUG [hsa-miR-25-5p]", "hTERT RPE-1", "%", 45.2],
  ["AAGGAGCUUACAAUCUAGCUGGG [hsa-miR-708-5p]", "hTERT RPE-1", "%", 9.05],
  ["AGAUCAGAAGGUGAUUGUGGCU [hsa-miR-383-5p]", "hTERT RPE-1", "%", 123],
  ["AAAGGAGGAAAUAGGCAGGCCA [hsa-miR-3173-3p]", "hTERT RPE-1", "%", 159],
  ["GGCCAGCCACCAGGAGGGCUG [hsa-miR-3194-5p]", "hTERT RPE-1", "%", 50.9],
  ["UAAGGCACGCGGUGAAUGCC [hsa-miR-124-3p]", "hTERT RPE-1", "%", 28.2]
]}
